- measured target: T1, 4H3427-bA
- T1 chain: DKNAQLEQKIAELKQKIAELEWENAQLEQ
- experiment summary: two-hybrid library CCNG1;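 note: natural log of median RNA to DNA barcode read ratio; higher means stronger binding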
readout name: interaction score

Worked examples, 10 binders total:
binder	readout name	reported value
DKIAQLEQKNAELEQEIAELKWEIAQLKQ [4H2442-bA]	interaction score	0.0308
DKIAQLKQEIAELKQKNAELEWEIAQLEQ [4H2673-bA]	interaction score	-1.17
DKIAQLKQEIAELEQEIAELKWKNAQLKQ [4H2576-bA]	interaction score	1.64
DEIAQLEQEIAELKQKNAELEWKIAQLKQ [4H118-bA]	interaction score	0.236
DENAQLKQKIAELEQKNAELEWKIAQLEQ [4H1845-bA]	interaction score	-0.783
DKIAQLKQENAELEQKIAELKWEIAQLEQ [4H2729-bA]	interaction score	-0.88
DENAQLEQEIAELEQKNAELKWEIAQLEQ [4H1081-bA]	interaction score	-0.645
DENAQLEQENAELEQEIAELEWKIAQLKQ [4H1158-bA]	interaction score	0.681
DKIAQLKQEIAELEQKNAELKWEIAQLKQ [4H2618-bA]	interaction score	0.72
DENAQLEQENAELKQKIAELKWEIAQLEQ [4H1257-bA]	interaction score	-0.869

A: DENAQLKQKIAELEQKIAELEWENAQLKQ [4H1828-bA]
B: DEIAQLEQKIAELKQENAELEWEIAQLKQ [4H338-bA]
C: DEIAQLEQKIAELKQEIAELKWENAQLEQ [4H331-bA]
D: DENAQLKQKIAELEQKIAELEWKNAQLEQ [4H1831-bA]
E: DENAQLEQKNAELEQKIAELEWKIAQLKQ [4H1446-bA]
Q) Hi! Can you put these in order of interaction score, lowest number first? Show the ranking through the labels, in the order asked for.
A) B, D, E, C, A
(B: 0.0707, D: 0.113, E: 0.256, C: 0.677, A: 0.974)
